Tested on: K-562 leukemia
Assay: NCI-60 one-dose screen, 48 h (100 = growth as untreated, 0 = no growth, -100 = all killed)
Details: 10 µM unless noted
Protocol: Cells are grown in 96 well plates and exposed to the test compound for 48 hours. Compounds are tested at a single concentration, which is 10^-5 M for most compounds. The reported endpoint is percent growth (GI% or GIPRCNT), where numbers from 0 - 100% represent growth inhibition, and numbers from -100% - 0 represent cell death. For example, a value of 40 represents 60% growth inhibition. A value of 0 means no net growth occurred over the course of the experiment. […]
Compounds without any hit were thinned out: in the full panel of roughly 83,000, 20% have a hit.
endpoint-label: growth (%)
Answer in %, number only, no unit symbol.

As a guide, the following entries are already answered.
[[record]]
compound = "CCOc1cc(C=C(C#N)C#N)cc(Br)c1O"
endpoint_label = "growth"
measured_number = 75.2

[[record]]
compound = "O=C(O)c1nn(Cc2ccc(Cl)cc2)c2ccccc12"
endpoint_label = "growth"
measured_number = 104


Turning now to a further record.
Exercise: Give growth; test system K-562 leukemia; compound NC(=O)C(Br)CBr (stereo not drawn)
Key: -50.1

* * *

test system: RXF 393 renal; test: NCI-60 one-dose screen, 48 h (100 = growth as untreated, 0 = no growth, -100 = all killed); settings: 10 µM unless noted
Compounds without any hit were thinned out: in the full panel of roughly 83,000, 20% have a hit.
Entries annotated with measured growth
Hi! Could you send only the number? It should be in %, unit omitted.

[[record]]
molecule = "Cc1ccc(C[As+](c2ccccc2)(c2ccccc2)c2ccccc2)cc1"
measured_number = 8.64

[[record]]
molecule = "CNC(=O)Oc1cccc(N(C)C)c1"
measured_number = 103

[[record]]
molecule = "CC1=C(SCCC(=O)OCC(=O)NCCC[Te]c2ccccc2)C(=O)c2ccccc2C1=O"
measured_number = 25

[[record]]
molecule = "O=C(N/N=C/c1ccc([N+](=O)[O-])o1)c1cc([N+](=O)[O-])cc([N+](=O)[O-])c1O"
measured_number = 102

[[record]]
molecule = "Nc1cccc2c1Oc1ccccc1O2"
measured_number = 145


Exercise: Report measured growth; entry is "O=S(=O)(F)c1ncnc2nc[nH]c12"
Key: 101

Exercise: Return the recorded growth value; entry: "CC1(C)N=C(N)N=C(N)N1c1ccc(OCCCCNC(=O)c2ccc(S(=O)(=O)F)cc2)c(Cl)c1"
Key: 76.3

Exercise: State, in one line, measured growth of "CC[CH2][Pb]([CH2]CC)([CH2]CC)[O]C(=O)C(F)(F)F"
Key: -73.9

Exercise: Please give measured growth of the following entry: O=C(O)CC(Br)C(=O)CBr (stereo unspecified)
Key: 109

* * *

system: HL-60(TB) leukemia; experiment: NCI-60 one-dose screen, 48 h; conditions: 10 µM unless noted
About 83,000 compounds went through this panel and 20% of them were active in at least one assay; those are over-represented in the sample as a whole. The source made the active and inactive calls. The calls were made as follows: active = growth percent below 10; inactive = the rest.
Mark one answer only. Choices: true (active), false (inactive)

[[record]]
molecule = "Brc1ccc2c(c1)c(-c1nc(-c3c[nH]c4ncccc34)cs1)cn2CCCN1CCCCC1"
label_class = "false"


Exercise: Each molecule tested received a call. Report the one for "O=C1COCCN1c1ccc(Nc2nc(Cl)nc(N3CCOCC3)n2)cc1" .
Key: false

Exercise: Outcome? "COc1cc2cc(Oc3ccc(NC(=O)Nc4cc(C(F)(F)F)cc(C(F)(F)F)c4)cc3)c(C)nc2cc1OCCN1CCCCC1"
Key: true

Exercise: Record lookup: outcome of this test for "O=[N+]([O-])c1cc2ncccc2c2ncccc12" ?
Key: false

Exercise: // outcome(item) with item = "O=C(c1ccccc1O)N1CCCC1"
Key: false

Exercise: Please share the test call associated with COc1ccc(C2CC(=O)Nc3c2c(C)nn3-c2nc3ccccc3[nH]2)cc1 (centres undefined) .
Key: true

Exercise: Query: recorded result category for "CN(CSc1ccc(Cl)cc1)c1ccc(CSc2ccc(Cl)cc2)cc1" in this test
Key: true

Exercise: Fill in: this test's call for "CCCCCCCC(=O)SCC/C=C/[C@@H]1CC(=O)NCc2cc(ccn2)C2=N[C@@](C)(CS2)C(=O)N[C@@H](C(C)C)C(=O)O1" is ___
Key: false

Exercise: So what was the verdict on "C=COC(=O)C(C)(C)C" in this test?
Key: false
